READOUT KIND: melting point

- COc1ccc(CNc2nc(-c3ccccc3)c(-c3ccc(=O)n(C(C)C)n3)nc2C(=O)O)cc1: 216.5 to 217 °C
- CC(C)n1nc(-c2nc(C(N)=O)c(N)nc2-c2ccccc2Br)ccc1=O [Example 190]: 132 to 135 °C
- CC(C)n1nc(-c2nc(NCc3ccco3)c(N)nc2-c2ccccc2)ccc1=O: 206.5 to 209 °C
- Cn1nc(-c2nc(O)c(N)nc2-c2ccccc2)ccc1=O: > 250 °C
- CCCCNc1nc(-c2ccc(=O)n(C(C)C)n2)c(-c2ccccc2)nc1N: 200 to 202 °C

Next molecule, melting point to be filled in.
input: For the molecule shown here, Cn1nc(-c2nc([S+](C)[O-])c(N)nc2-c2ccccc2)ccc1=O (stereo not drawn) , give the reported melting point.
output: 209 to 210.5 °C

====

READOUT KIND: melting point

// below: answered molecules
* CC(C)n1nc(-c2nc(OCCOCc3ccccc3)c(N)nc2-c2ccccc2)ccc1=O | 120 to 122 °C
* CSc1nc(-c2ccc(=O)n(C)n2)c(-c2ccccc2)nc1N | 204 to 205.5 °C
* CC(C)n1nc(-c2nc(NC3CCCCC3)c(N)nc2-c2ccccc2)ccc1=O | 227 to 228.5 °C
* Cn1nc(-c2nc(OCCN3CCOCC3)c(N)nc2-c2ccccc2)ccc1=O | 185 to 187 °C
* Cn1nc(-c2nc(Br)c(N)nc2-c2ccccc2)ccc1=O | 220 to 222 °C

input: For the molecule shown here, "CCCCOc1nc(-c2ccc(=O)n(C)n2)c(-c2ccccc2)nc1N" , give the reported melting point.
output: 143 to 144 °C

input: Continue with "CC(C)n1nc(-c2ncc(N)nc2-c2ccccc2Br)ccc1=O"
output: 189 to 191 °C

input: Continue with "CC(C)n1nc(-c2ncc(O)nc2-c2ccccc2)ccc1=O"
output: 225 to 227 °C

input: Continue with "CC(C)n1nc(-c2nc(N3CCN(Cc4ccccn4)CC3)c(N)nc2-c2ccccc2)ccc1=O"
output: 88 to 91 °C

input: Continue with "CC(C)n1nc(-c2nc(OCCOC(C)(C)C)c(N)nc2-c2ccccc2)ccc1=O"
output: 163 to 165 °C

input: Continue with "CC(C)n1nc(-c2nc(NCCc3ccccn3)c(N)nc2-c2ccccc2)ccc1=O"
output: 204 to 206 °C

input: Continue with "COCOCC#Cc1nc(-c2ccc(=O)n(C(C)C)n2)c(-c2ccccc2)nc1N"
output: 133 to 135 °C

input: Continue with "CCn1nc(-c2ncc(NCc3ccc(OC)cc3)nc2-c2ccccc2)ccc1=O"
output: 148 to 150 °C

input: Continue with "CC(C)n1nc(-c2nc(-n3cncn3)c(N)nc2-c2ccccc2)ccc1=O"
output: 240 to 241.5 °C

input: Continue with "CC(C)n1nc(-c2nc(-c3ccsc3)c(N)nc2-c2ccccc2)ccc1=O"
output: 228 to 230 °C

====

TESTED TARGET: human A2a receptor (Homo sapiens, UniProt P29274)
Sequence (P29274 whole entry): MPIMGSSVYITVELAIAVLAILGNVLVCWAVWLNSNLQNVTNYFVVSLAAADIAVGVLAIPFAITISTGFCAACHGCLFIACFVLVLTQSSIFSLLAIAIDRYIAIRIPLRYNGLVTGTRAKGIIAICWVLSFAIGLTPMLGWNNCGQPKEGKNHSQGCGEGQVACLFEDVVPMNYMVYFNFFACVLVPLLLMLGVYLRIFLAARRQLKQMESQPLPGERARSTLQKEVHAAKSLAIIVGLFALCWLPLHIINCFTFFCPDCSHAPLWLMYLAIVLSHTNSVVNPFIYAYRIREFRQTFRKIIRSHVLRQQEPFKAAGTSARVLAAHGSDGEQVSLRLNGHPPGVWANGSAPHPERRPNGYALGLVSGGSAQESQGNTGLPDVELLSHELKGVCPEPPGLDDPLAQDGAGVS
EXPERIMENT: Adenosine antagonistic activity, radioligand binding ([3H]CGS 21680)
TEST CONTEXT: [3H]CGS 21680 20 nM
READOUT KIND: Ki (nM)

// below: answered compounds
* CC(C)n1nc(-c2nc(Cl)c(N)nc2-c2ccc(F)cc2)ccc1=O | 2.65
* Cn1nc(-c2nc(OCc3ccco3)c(N)nc2-c2ccccc2)ccc1=O | 1.49
* CC(C)n1nc(-c2ncc(N)nc2-c2ccc(F)cc2)ccc1=O | 6.89

a. Cn1nc(-c2nc(C#N)c(N)nc2-c2ccccc2)ccc1=O
b. Cn1nc(-c2nc(-n3cccn3)c(N)nc2-c2ccccc2)ccc1=O
c. CC(C)n1nc(-c2nc(C#Cc3cncn3C)c(N)nc2-c2ccccc2)ccc1=O
d. CC(C)n1nc(-c2nc(NCc3ccco3)c(N)nc2-c2ccccc2)ccc1=O
input: Ascending by Ki, please: list the compounds accordingly. Give me the labels in the order the question wants.
output: c, a, d, b
(c: 0.25 nM, a: 1.72 nM, d: 2.6 nM, b: 4.95 nM)

I. CCCCOc1nc(-c2ccc(=O)n(C)n2)c(-c2ccccc2)nc1N
II. CC(C)n1nc(-c2nc(Br)c(N=S(C)C)nc2-c2ccccc2)ccc1=O
input: Look at I and II . Which one has the lower recorded Ki number? Pick one; state its label.
output: I
(I: 1.57 nM, II: 6.79 nM)

a. CC(C)n1nc(-c2nc(C#Cc3ccccc3)c(N)nc2-c2ccccc2)ccc1=O
b. CC(C)n1nc(-c2nc(OCc3ccccn3)c(N)nc2-c2ccccc2)ccc1=O
input: Which entry has a larger number for Ki, a or b ? Pick one; state its label.
output: b
(b: 0.42 nM, a: 0.29 nM)

These data points were gathered from patent US7265120B2.
